Each recorded value in this set is attributed to ChEMBL document CHEMBL3779832.

Target: Free fatty acid receptor 1 (Homo sapiens)
Sequence (O14842 whole entry): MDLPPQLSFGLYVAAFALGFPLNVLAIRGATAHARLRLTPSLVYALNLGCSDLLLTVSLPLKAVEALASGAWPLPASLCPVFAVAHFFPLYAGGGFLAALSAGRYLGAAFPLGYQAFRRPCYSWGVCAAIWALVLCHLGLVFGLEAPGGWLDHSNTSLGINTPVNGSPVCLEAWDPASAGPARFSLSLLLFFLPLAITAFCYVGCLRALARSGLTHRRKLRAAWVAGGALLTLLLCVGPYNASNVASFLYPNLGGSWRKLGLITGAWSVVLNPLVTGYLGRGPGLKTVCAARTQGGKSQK
Assay: Agonist activity at human FFA1 expressed in CHO cells assessed as intracellular Ca2+ level measured for 90 secs by Fluo-4 AM-based FLIPR assay
readoutKind: EC50 (µM)

> print(dat)
                                   compound  unit  valueobserved
1  Cc1cccc(C)c1-c1cccc(COc2ccc3c(c2)OCC3CC(=O)O)c1 (centres undefined)    µM         0.0384
2  COc1ccc(COc2ccc3c(c2)OCC3CC(=O)O)cc1-n1c(C)ccc1C (centres undefined)    µM         0.0347
3  Cc1ccc(C)n1-c1cccc(COc2ccc3c(c2)OCC3CC(=O)O)c1 (centres undefined)    µM         0.0469
4  CCOc1ccc(COc2ccc3c(c2)OCC3CC(=O)O)cc1-n1c(C)ccc1C (centres undefined)    µM         0.0612
